The entries below come with measured apparent KD of MS2 coat protein values attached.
Test system: MS2 coat protein
Experiment: apparent KD of MS2 coat protein, switch ON state; designed switch direction (-1 OFF switch, 1 ON switch): -1; higher = weaker reporter binding
Details: FMN input: 0 or 200 uM; Eterna round: R93 (includes R88 designs)
Record the value in nM, omitting the unit from your answer.

For record AAAAAGGCAGGAUAUACGUACAUGUCGAAAGACGUGAAGGGACAUGAGGAUCACCCAUGUAGAAGGGUCAAGAA [Mat - Exclusion 2 - JL mod - D77] the listed apparent KD of MS2 coat protein is 111

For record AAAAAGUGAGGAUAUACGCUGAGGAGUAGACACAACCAGGCGUAGAAGGCACAUGAGGAUCACCCAUGUCCAAA [EX4 Malc#11] the listed apparent KD of MS2 coat protein is 26.1

For record AGAAAACAUGAGGAUCACCCAUGUGAGGAUAUCGAUGUCCAAAAAAAAGUGCGGACCUCGAGAAGGCACAUUGG [Mod of Erbelaed v.3 (favor state 2,lowered kcal by 1)] the listed apparent KD of MS2 coat protein is 49.5

For record AAUAAGAGAGGAUAUACUAAAGAAAUGAAAAGGGAUAAAGAACAUGAGGAUCACCCAUGUAGAAGGCUCAAUAA [Khyan] the listed apparent KD of MS2 coat protein is 24.3

For record AAAAAGCAAGGAUAUACAUGAGGAUCACCCAUGUGAAAAAAAACAAUAAGAAGAAAAAGUAGAAGGUGCAAAAA [Ex 3 Tesla 1] the listed apparent KD of MS2 coat protein is 24

For record AAUAACCGAGGAUAUACAAAACCUGUGAUCUAGUGGAUUUUACAUGAGGAUCACCCAUGUAGAAGGCGGACAAG [Atdiiste] the listed apparent KD of MS2 coat protein is 49.9
